Sourced from patent US5434150A

// pIC50 lookup, one value per entry
Biological target: Human Thrombocytes
Test: Fibrinogen binding to human thrombocytes (fibrinogen binding test)
Conditions: *: 125I fibrinogen replaced by 3H-(3S,5S)-5-[(amidino-biphenylyl)-oxymethyl]-carboxymethyl-pyrrolidinone ligand; read-out: Fibrinogen binding test IC50 (values marked *)
pIC50: −log10 of the molar value.

# mol, pIC50
measured = [
    ("COC(=O)CCNC(=O)c1ccc2c(c1)nc(-c1ccc(C(=N)N)cc1)n2CCCN1CCS(=O)(=O)CC1", 5.26),
    ("Cn1c(-c2ccc(C(=N)N)cc2)nc2cc(C(=O)NCCC(=O)O)cnc21", 7.70),
    ("COC(=O)CCNC(=O)c1ccc2c(c1)nc(-c1ccc(C(=N)N)cc1)n2Cc1cccnc1", 5.32),
]
